PROTOCOL DESCRIPTION: Plasma protein binding of brigatinib by rapid equilibrium dialysis of participants' plasma samples
Type: in vitro ADME, human
TEST CONTEXT: human, plasma, oral, 90 mg, Child-Pugh B, moderate hepatic impairment (n=6); pooled 2, 8, 24 h postdose; read-out: mean fraction unbound (free) in plasma
QUANTITY KIND: fraction unbound
# output: bare number, no unit

QUERY: Requested field: fraction unbound. Item: COc1cc(N2CCC(N3CCN(C)CC3)CC2)ccc1Nc1ncc(Cl)c(Nc2ccccc2P(C)(C)=O)n1 [brigatinib]
RESULT: 0.108

###

PROTOCOL DESCRIPTION: Plasma protein binding of brigatinib by rapid equilibrium dialysis of participants' plasma samples
Type: in vitro ADME, human
TEST CONTEXT: human, plasma, oral, 90 mg, Child-Pugh A; pooled 2, 8, 24 h postdose; read-out: pooled mean ± SD fraction unbound (converted)
QUANTITY KIND: fraction unbound

QUERY: Consider the compound `COc1cc(N2CCC(N3CCN(C)CC3)CC2)ccc1Nc1ncc(Cl)c(Nc2ccccc2P(C)(C)=O)n1` and give its measured fraction unbound.
RESULT: 0.111
